target: PIM1 (Homo sapiens, UniProt P11309); assay: KinaseGlo Pim1 ATP depletion assay; type: biochemical
Sequence (P11309 whole entry): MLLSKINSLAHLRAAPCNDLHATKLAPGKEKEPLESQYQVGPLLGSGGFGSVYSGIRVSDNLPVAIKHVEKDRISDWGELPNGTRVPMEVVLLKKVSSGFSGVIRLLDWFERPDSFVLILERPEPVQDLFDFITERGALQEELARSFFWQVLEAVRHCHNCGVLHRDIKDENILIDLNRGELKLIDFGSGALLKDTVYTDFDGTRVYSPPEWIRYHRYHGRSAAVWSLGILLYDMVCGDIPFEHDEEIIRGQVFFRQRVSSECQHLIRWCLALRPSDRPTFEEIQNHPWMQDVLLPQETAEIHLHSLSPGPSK
Task for the reader: assign each of the following compounds its reported IC50.
Report only the number, with the unit nM understood.

Q. Query (compound): `CC[C@H]1O[C@@H](c2ccncc2NC(=O)c2cccn(-c3ccccc3)c2=O)C[C@@H](O)[C@@H]1O` ; field requested: IC50
A. 5850

Q. Query (compound): `O=C(Nc1cnccc1[C@@H]1C[C@H](O)CC2(CC2)O1)c1csc(-c2c(F)cccc2F)n1` ; field requested: IC50
A. 2

Q. Query (compound): `CC(C)NC(=O)c1ccc(F)c(-c2ccc(N)c(C(=O)Nc3cnccc3[C@@H]3C[C@@H](O)[C@](C)(O)[C@@H](C)O3)n2)c1F` ; field requested: IC50
A. 2

Q. Query (compound): `C=C[C@H]1OC(c2ccncc2NC(=O)c2nc(-c3c(F)cccc3F)c(F)cc2N)=C[C@@H](O)[C@@H]1O` ; field requested: IC50
A. 1

Q. Query (compound): `N#C[C@H]1O[C@@H](c2ccncc2NC(=O)c2nc(-c3c(F)cccc3F)c(F)cc2N)C[C@@H](O)[C@@H]1O` ; field requested: IC50
A. 1

Q. Query (compound): `CC[C@H]1O[C@@H](c2ccncc2NC(=O)c2ccc(F)c(-c3c(F)cccc3F)n2)C[C@@H](O)[C@@H]1O` ; field requested: IC50
A. 1

Q. Query (compound): `COC[C@H]1O[C@@H](c2ccncc2NC(=O)c2ccc(F)c(-c3c(F)cccc3F)n2)C[C@@H](O)[C@@H]1O` ; field requested: IC50
A. 19

Q. Query (compound): `CC1(C)O[C@H](c2ccncc2NC(=O)c2csc(-c3c(F)cccc3F)n2)C[C@@H](O)[C@H]1O` ; field requested: IC50
A. 5

Q. Query (compound): `O=C(Nc1cnccc1[C@@H]1C[C@H](O)[C@]2(O)CCCC[C@@H]2O1)c1ccnn(-c2ccccc2F)c1=O` ; field requested: IC50
A. 1780

Q. Query (compound): `CC[C@]1(O)[C@H](O)C[C@H](c2ccncc2NC(=O)c2nc(-c3nccs3)ccc2N)O[C@@H]1C` ; field requested: IC50
A. 8.7

Q. Query (compound): `CC[C@]1(O)[C@H](O)C[C@H](c2ccncc2NC(=O)c2nc(-c3cnn(C)c3C)ccc2N)O[C@@H]1C` ; field requested: IC50
A. 25.4

Q. Query (compound): `C=C[C@H]1O[C@@H](c2ccncc2NC(=O)c2nc(-c3c(F)cccc3F)ncc2N)C[C@@H](O)[C@@H]1O` ; field requested: IC50
A. 32.8

Q. Query (compound): `Nc1cnc(-c2c(F)cccc2F)nc1C(=O)Nc1cnccc1[C@H]1C[C@@H](O)[C@@]2(O)CCC[C@H]2O1` ; field requested: IC50
A. 8.4

Q. Query (compound): `C[C@H]1O[C@@H](c2ccncc2NC(=O)c2ccc(F)c(-c3c(F)cccc3F)n2)C[C@@H](O)[C@@]1(O)CO` ; field requested: IC50
A. 8

###

target: PIM3 (Homo sapiens); test: KinaseGlo Pim3 ATP depletion assay; assay type: biochemical
Task for the reader: assign each of the following compounds its reported pIC50.
The scale used: pIC50 is minus the common logarithm of the concentration in molar units.

Q. Query (compound): C[C@@H]1O[C@H](c2ccncc2NC(=O)c2csc(-c3c(F)cccc3F)n2)C[C@H](O)[C@@]1(C)O (stereo in doubt) [Example 111] ; field requested: pIC50
A. 8.70

Q. Query (compound): O=C(Nc1cnccc1[C@@H]1C[C@H](O)CCO1)c1ccc(F)c(-c2c(F)cccc2F)n1 [Example 132] ; field requested: pIC50
A. 7.48

Q. Query (compound): CC(C)NC(=O)c1ccc(F)c(-c2nc(C(=O)Nc3cnccc3[C@H]3C[C@@H](O)[C@](C)(O)[C@@H](C)O3)ccc2F)c1 [Example 105] ; field requested: pIC50
A. 8.22

Q. Query (compound): O=C1CC[C@H]2O[C@@H](c3ccncc3NC(=O)c3ccc(F)c(-c4c(F)cccc4F)n3)C[C@@H](O)[C@H]2N1 [Example 198] ; field requested: pIC50
A. 7.72

Q. Query (compound): Nc1cnc(-c2c(F)cccc2F)nc1C(=O)Nc1cnccc1[C@H]1C[C@@H](N)[C@@]2(O)CCC[C@H]2O1 [Example 213] ; field requested: pIC50
A. 8.24

Q. Query (compound): C[C@H]1O[C@@H](c2ccncc2NC(=O)c2csc(-c3c(F)cccc3F)n2)C[C@@H](O)[C@@H]1O (stereo in doubt) [Example 136] ; field requested: pIC50
A. 7.89

###

target: GSK3β (Homo sapiens); assay: GSK3β ATP depletion assay; format: biochemical; details: ATP depletion assay; read-out: GSK3b IC50
Sequence (P49841 whole entry, species assumed): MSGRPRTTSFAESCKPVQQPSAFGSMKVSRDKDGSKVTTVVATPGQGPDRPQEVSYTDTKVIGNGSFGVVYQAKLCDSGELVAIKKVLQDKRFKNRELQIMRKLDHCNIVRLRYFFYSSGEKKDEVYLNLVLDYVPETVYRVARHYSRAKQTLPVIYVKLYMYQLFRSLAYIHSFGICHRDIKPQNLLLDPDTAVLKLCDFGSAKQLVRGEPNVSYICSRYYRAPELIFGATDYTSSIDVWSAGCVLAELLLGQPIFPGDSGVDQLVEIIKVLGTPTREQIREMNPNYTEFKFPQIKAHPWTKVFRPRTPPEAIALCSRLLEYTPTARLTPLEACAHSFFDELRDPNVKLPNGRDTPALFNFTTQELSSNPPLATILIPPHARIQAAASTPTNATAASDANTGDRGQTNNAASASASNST
quantityName: IC50 (nM)
Report only the number, with the unit nM understood.

Q. Query (compound): N[C@@H]1C[C@H](c2ccncc2NC(=O)c2csc(-c3c(F)cccc3F)n2)O[C@@H]2CCC[C@H]12 [Example 231] ; field requested: IC50
A. 53.2

Q. Query (compound): COc1cc(F)c(-c2nc(C(=O)Nc3cnccc3[C@H]3C[C@@H](N)[C@H](O)[C@@H](C(C)(C)C)O3)ccc2F)c(F)c1 [Example 269] ; field requested: IC50
A. 613

Q. Query (compound): CC(C)(C)[C@@H]1O[C@H](c2ccncc2NC(=O)c2nc(-c3ccccc3)cnc2N)C[C@H](N)[C@H]1O [Example 355] ; field requested: IC50
A. 170

Q. Query (compound): Cc1cc(F)c(-c2nc(C(=O)Nc3cnccc3[C@H]3C[C@@H](N)[C@H](O)[C@@H](C(C)(C)C)O3)ccc2F)c(F)c1 [Example 270] ; field requested: IC50
A. 1060

Q. Query (compound): CC1(C)C[C@H](N)C[C@@H](c2ccncc2NC(=O)c2nc(-c3ccccc3)cnc2N)O1 [Example 297] ; field requested: IC50
A. 7.9

Q. Query (compound): CNC(=O)c1ccc(F)c(-c2nc(C(=O)Nc3cnccc3C3C[C@@H](N)[C@H](O)[C@@H](C(C)C)O3)ccc2F)c1F (stereo in doubt) [Example 316] ; field requested: IC50
A. 4390

Q. Query (compound): CC(C)C1OC(c2ccncc2NC(=O)c2nc(-c3c(F)cccc3F)ncc2N)C[C@H](N)[C@H]1O (stereo in doubt) [Example 273] ; field requested: IC50
A. 16100

Q. Query (compound): CC[C@H]1O[C@@H](c2ccncc2NC(=O)c2nc(-c3ccccc3)cnc2N)C[C@@H](N)[C@@H]1O [Example 343] ; field requested: IC50
A. 12

Q. Query (compound): C[C@]1(O)[C@H](N)CC(c2ccncc2NC(=O)c2ccc(F)c(-c3c(F)cc(S(C)(=O)=O)cc3F)n2)O[C@@H]1C1CC1 (stereo in doubt) [Example 281] ; field requested: IC50
A. 4250

Q. Query (compound): CC(C)[C@H]1C[C@@H](N)C[C@@H](c2ccncc2NC(=O)c2ccc(F)c(-c3c(F)cc(S(C)(=O)=O)cc3F)n2)O1 [Example 303] ; field requested: IC50
A. 10300

Q. Query (compound): N[C@@H]1C[C@H](c2ccncc2NC(=O)c2ccc(F)c(-c3c(F)cccc3F)n2)O[C@@H]2CCC(=O)N[C@@H]12 [Example 241] ; field requested: IC50
A. 6300

Q. Query (compound): CSc1ccc(F)c(-c2nc(C(=O)Nc3cnccc3[C@H]3C[C@@H](N)[C@](C)(O)[C@@H](C)O3)ccc2F)c1F [Example 327] ; field requested: IC50
A. 640

Q. Query (compound): CC1(C)C[C@@H](N)C[C@H](c2ccncc2NC(=O)c2nc(-c3ccccc3)cnc2N)O1 [Example 296] ; field requested: IC50
A. 9.4

Q. Query (compound): CC(C)[C@H]1O[C@@H](c2ccncc2NC(=O)c2ccc(F)c(-c3c(F)cccc3F)n2)C[C@@H](N)[C@@H]1O [Example 271] ; field requested: IC50
A. 2750

Q. Query (compound): CC(C)(C)[C@@H]1O[C@H](c2ccncc2NC(=O)c2nc(-c3ccccc3)cnc2N)C[C@@H](N)[C@H]1O [Example 227] ; field requested: IC50
A. 6.4

Q. Query (compound): C[C@]1(O)[C@H](N)C[C@H](c2ccncc2NC(=O)c2csc(-c3c(F)cccc3F)n2)O[C@@H]1C1CC1 [Example 263] ; field requested: IC50
A. 334

Q. Query (compound): CC[C@]1(O)[C@H](N)C[C@H](c2ccncc2NC(=O)c2nc(-c3ccccc3)cnc2N)O[C@@H]1C [Example 187] ; field requested: IC50
A. 3.3

Q. Query (compound): CC(=O)Nc1ccc(F)c(-c2nc(C(=O)Nc3cnccc3C3C[C@@H](N)[C@H](O)[C@@H](C(C)C)O3)ccc2F)c1F (stereo in doubt) [Example 307] ; field requested: IC50
A. 3420

Q. Query (compound): CC(C)[C@@H]1C[C@H](N)C[C@H](c2ccncc2NC(=O)c2ccc(F)c(-c3c(F)cccc3F)n2)O1 [Example 300] ; field requested: IC50
A. 3300

Q. Query (compound): COc1cc(F)c(-c2nc(C(=O)Nc3cnccc3[C@H]3C[C@@H](N)[C@](C)(O)[C@@H](C4CC4)O3)ccc2F)c(F)c1 [Example 265] ; field requested: IC50
A. 1050

Q. Query (compound): C[C@@H]1O[C@H](c2ccncc2NC(=O)c2csc(-c3c(F)cccc3F)n2)C[C@H](N)[C@@]1(C)O [Example 222] ; field requested: IC50
A. 3060

Q. Query (compound): COCCOc1cc(F)c(-c2nc(C(=O)Nc3cnccc3[C@@H]3C[C@@H](N)CC(C)(C)O3)ccc2F)c(F)c1 [Example 315] ; field requested: IC50
A. 121

Q. Query (compound): CC(C)(C)[C@H]1O[C@@H](c2ccncc2NC(=O)c2nc(-c3ccccc3)cnc2N)C[C@H](N)[C@@H]1O [Example 286] ; field requested: IC50
A. 0.5

Q. Query (compound): C[C@]1(O)[C@H](O)C[C@H](c2ccncc2NC(=O)c2nc(-c3c(F)cccc3F)ncc2N)O[C@@H]1C1CC1 [Example 246] ; field requested: IC50
A. 983
